Reported Km values are given for each entry in this list.
- measured.target: T1, Gly-Asp-Asp-Asp-Asp-Lys-β-naphthylamide
- T1 chain: GDDDDK
Supply the numeric figure in µM, leaving out any unit text.

# lookup: Km of Medaka EP-1 serine protease domain (wild-type) (protein) VVGGVNAEKGAWPWMVSLHWRGRHGCGASLIGRDWLLTAAHCVYGKNTHLQYWSAVLGLHAQSSMNSQEVQIRQVDRIIINKNYNRRTKEADIAMMHLQQPVNFTEWVLPVCLASEDQHFPAGRRCFIAGWGRDAEGGSLPDILQEAEVPLVDQDECQRLLPEYTFTSSMLCAGYPEGGVDSCQGDSGGPLMCLEDARWTLIGVTSFGVGCGRPERPGAYARVSAFTSWIAETRRSSFSDLD
700

New cases:
Give the measured Km of Bovine EP serine protease (Novagen) (protein) IVGGSDSREGAWPWVVALYFDDQQVCGASLVSRDWLVSAAHCVYGRNMEPSKWKAVLGLHMASNLTSPQIETRLIDQIVINPHYNKRRKNNDIAMMHLEMKVNYTDYIQPICLPEENQVFPPGRICSIAGWGALIYQGSTADVLQEADVPLLSNEKCQQQMPEYNITENMVCAGYEAGGVDSCQGDSGGPLMCQENNRWLLAGVTSFGYQCALPNRPGVYARVPRFTEWIQSFLH .
800
